Here's a batch of molecules along with measured pKi for UniProt:P07550.
Sequence (P07550 whole entry): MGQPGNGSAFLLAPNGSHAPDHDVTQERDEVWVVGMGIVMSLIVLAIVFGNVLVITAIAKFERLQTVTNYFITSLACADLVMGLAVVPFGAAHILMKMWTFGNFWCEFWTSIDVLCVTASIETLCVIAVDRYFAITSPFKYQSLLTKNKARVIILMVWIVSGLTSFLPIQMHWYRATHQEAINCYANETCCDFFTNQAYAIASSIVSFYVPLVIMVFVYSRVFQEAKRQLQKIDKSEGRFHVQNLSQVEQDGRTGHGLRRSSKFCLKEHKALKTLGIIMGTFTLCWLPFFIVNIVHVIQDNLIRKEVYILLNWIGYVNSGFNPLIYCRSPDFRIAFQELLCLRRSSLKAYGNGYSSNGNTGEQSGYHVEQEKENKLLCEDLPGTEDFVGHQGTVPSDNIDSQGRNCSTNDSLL
One number for each entry, as −log10 of the molar value.

O[C@@H](CNC12CC3CC(CC(C3)C1)C2)COc1cccc2[nH]ccc12 = 8.18

Now, please, on to the next molecule.
Exercise: Tell me pKi reported for O[C@@H](CNC1CCCCC1)COc1cccc2[nH]ccc12
Key: 8.43

---

# TARGET OF ASSAY: 5-hydroxytryptamine receptor 1A (Homo sapiens) (UniProt P08908)
# Sequence (whole entry): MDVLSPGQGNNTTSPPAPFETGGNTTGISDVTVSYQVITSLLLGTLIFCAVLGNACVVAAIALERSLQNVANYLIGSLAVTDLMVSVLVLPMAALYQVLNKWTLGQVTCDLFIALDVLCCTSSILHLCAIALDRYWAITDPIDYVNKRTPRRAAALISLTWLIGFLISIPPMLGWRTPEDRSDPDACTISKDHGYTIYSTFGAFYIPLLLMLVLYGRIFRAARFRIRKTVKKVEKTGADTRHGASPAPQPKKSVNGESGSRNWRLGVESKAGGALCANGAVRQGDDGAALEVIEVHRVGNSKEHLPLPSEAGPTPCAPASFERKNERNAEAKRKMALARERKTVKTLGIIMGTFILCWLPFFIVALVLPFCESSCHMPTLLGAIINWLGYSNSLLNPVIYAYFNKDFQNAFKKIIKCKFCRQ
# ASSAY SUMMARY: Antagonist activity at human 5HT1A expressed in mouse LM(tK-) cells assessed as maximal inhibition of 5-HT-stimulated [35S]GTPgammaS binding
# Assay type: functional, cell-based
# Set-up: scale not given: the % may be the effect or the level left
The label depends only on Activity: condition met if it is at least 10%, condition not met if it is smaller.

See these solved cases before continuing.
OC(CNC1CCCCCC1)COc1cccc2[nH]ccc12 (stereo not given) = condition not met
c1cc(OCCCNC2CCCC2)c2cc[nH]c2c1 = condition met
O[C@@H](CNC1C2CC3CC(C2)CC1C3)COc1cccc2[nH]ccc12 (stereo not given in full) = condition not met
OC(CNC1CCCC1)COc1cccc2[nH]ccc12 (stereo not given) = condition met

Note: attention shifts to another entry.
Exercise: Say whether O[C@H](CNC12CC3CC(CC(C3)C1)C2)COc1cccc2[nH]ccc12 shows Activity of 10% or more.
Key: condition not met
